Settings: in acetone, 288.15 K
observationType: solubility (mole fraction)
The answer should be a number; do not append a unit.

Request: Entry O=C(O)CC[C@H](NC(=O)OCC1c2ccccc2-c2ccccc21)C(=O)O : reported solubility (mole fraction) = ?
Result: 0.0261

====

Conditions: in n-pentanol, 288.15 K
observationType: solubility (mole fraction)
Form field (numeric): enter value without unit.

Request: Requested read-out: solubility (mole fraction). Entry: O=C(O)CC[C@H](NC(=O)OCC1c2ccccc2-c2ccccc21)C(=O)O
Result: 0.00765

====

Conditions: in ethyl acetate, 283.15 K
observationType: solubility (mole fraction)
Could you respond with only the numeric value?

Request: I am curious: what solubility (mole fraction) value has been reported for O=C(O)CC[C@H](NC(=O)OCC1c2ccccc2-c2ccccc21)C(=O)O ?
Result: 0.00239
